This collection of values is drawn from PubChem BioAssay (NCI).

# System: NCI-H322M lung
# Protocol Summary: NCI-60 one-dose screen, 48 h (100 = growth as untreated, 0 = no growth, -100 = all killed)
# Setup Conditions: 10 µM unless noted
The panel holds about 83,000 compounds, 20% with a hit somewhere; the sample as a whole holds those more often.
Readout: growth (%)

Smiles Notation: C/C(=C(\c1ccc(OCCCN(C)C)cc1)c1ccc(OC(=O)Cc2ccccc2)cc1)c1ccc(Cl)cc1
Test Target: NCI-H322M lung
Test Result: 86.8
//
Smiles Notation: COc1ccc(-c2nc3cc(C(=O)NC4CCCCC4)ccc3n2C2CCCCC2)cc1
Test Target: NCI-H322M lung
Test Result: 85.8
//
Smiles Notation: CCOc1cc(\C=N/N=C(N)/C(N)=N\N=C/c2ccc(O)c(OCC)c2)ccc1O
Test Target: NCI-H322M lung
Test Result: 103
//
Smiles Notation: COc1cc(OC)cc(C(=O)Nc2cnc(Nc3ccc(N4CCOCC4)nc3)nc2Oc2ccc(C(F)(F)F)cc2)c1
Test Target: NCI-H322M lung
Test Result: 77.4

====

# System: OVCAR-3 ovarian
# Protocol Summary: NCI-60 one-dose screen, 48 h (100 = growth as untreated, 0 = no growth, -100 = all killed)
# Setup Conditions: 10 µM unless noted
This is part of a sample that, as a whole, favours compounds with a hit. Of some 83,000 tested, about 20% had one in any assay. The source made the active and inactive calls. The calls were made as follows: active = growth percent below 10; inactive = the rest.
# maps each entry to its growth

Compound: O=C(/C=C/c1ccc(Cl)cc1)c1ccc(-n2cc(CN3CCN(c4cc5c(cc4F)c(=O)c(C(=O)O)cn5C4CC4)CC3)nn2)cc1
growth: 90.5% (inactive)

Compound: O=C1/C(=C/c2ccccc2)COc2ccc(O)cc21
growth: 98.7% (inactive)

Compound: CCN=c1sc2c(n1NC(=O)c1cc3ccc1CCc1ccc(cc1)CC3)C(=O)c1ccccc1C2=O
growth: -18.8% (active)

Compound: CC1=C(C(=O)c2ccccc2)C(c2ccc3c(c2)OCO3)NC(=S)N1 (stereo not given)
growth: 12.9% (inactive)

Compound: C#CCOc1cccc(Nc2c(Cl)c(CCl)nc3ccc(Oc4ccccc4)cc23)c1
growth: 31.6% (inactive)

Compound: [2H]C([2H])([2H])Oc1ccc(/C=C/C(=O)/C=C(O)/C=C/c2ccc(OC([2H])([2H])[2H])c(OC([2H])([2H])[2H])c2)cc1OC([2H])([2H])[2H]
growth: 37.2% (inactive)

Compound: Nc1ncc(-c2ccc3ncnc(N4CCc5cc(F)c(Cl)cc54)c3c2)cc1C=O
growth: 0.575% (active)

Compound: C#C[C@]1(O)CC[C@H]2[C@@H]3CC=C4c5sc(-c6cccc(C)c6)nc5CC[C@]4(C)[C@H]3CC[C@@]21C
growth: 89.2% (inactive)

Compound: Cc1ccc(C2(C)NC(=O)N(CC(=O)Nc3cccc(C)c3)C2=O)cc1 (stereo not given)
growth: 111% (inactive)

Compound: CC(C)n1nc(-c2ccc3oc(N)nc3c2)c2c(N)ncnc21
growth: -6.08% (active)

Compound: Cc1ccc2c(n1)C[C@H](C(C)(C)O)CC[C@H]2C
growth: 113% (inactive)

Compound: CCOC(=O)CCC(=O)P(=O)(O)O
growth: 115% (inactive)

Compound: C#CC(F)(F)[C@]1(O)CCC2C3CCC4=CC(=O)CCC4=C3[C@@H](c3ccc(N(C)C)cc3)C[C@@]21C (stereo not given in full)
growth: 95.1% (inactive)

Compound: COc1ccc(S(=O)(=O)Oc2ccc(-c3sc4cc(OS(=O)(=O)c5ccc(OC)cc5)ccc4c3C(=O)c3ccc(OCCN4CCCCC4)cc3)cc2)cc1
growth: 100% (inactive)

Compound: O=C(Nc1ccc2c(c1)-c1ccccc1C2)C1CC(=O)N(c2ccc3c(c2)OCO3)C1 (stereo not given)
growth: 31.3% [50 µM] (inactive)

====

# maps each entry to its growth
# System: K-562 leukemia
# Protocol Summary: NCI-60 one-dose screen, 48 h (100 = growth as untreated, 0 = no growth, -100 = all killed)
# Setup Conditions: 10 µM unless noted
The panel holds about 83,000 compounds, 20% with a hit somewhere; the sample as a whole holds those more often.
Readout: growth (%)

Compound: O=C(NS(=O)(=O)c1ccccc1)n1cc(-c2ccncc2)c(-c2cc(O)cc(Cl)c2)n1
Readout: growth
Test Result: 78
--
Compound: Cn1ccnc1C(=O)/C=C/c1ccc(C(=O)Nc2ccccc2F)cc1
Readout: growth
Test Result: 12.6
--
Compound: COc1nc2ccccc2cc1/C=C1/C=C(c2ccccc2)NC1=O
Readout: growth
Test Result: 13.1
--
Compound: CCN1C(=O)N(CC)C2C1NC(=S)N2/N=C/C=C/c1ccccc1 (configuration not stated)
Readout: growth
Test Result: 10.9
--
Compound: C=C(C)[C@@H]1CC[C@]2(C#N)CC[C@]3(C)[C@H](CC[C@@H]4[C@@]5(C)CCCNC(C)(C)[C@@H]5CC[C@]43C)[C@@H]12
Readout: growth
Test Result: -26.2
--
Compound: O=C(Nc1ncc(Cc2cc(C(F)(F)F)ccc2Cl)s1)C(=S)N1CCOCC1
Readout: growth
Test Result: 82.2
--
Compound: COc1ccc(/C(C)=C(\c2ccc(Cl)cc2)c2ccc(OCCCN(C)C)cc2)cc1
Readout: growth
Test Result: 1.91

====

# System: HCC-2998 colon
# Protocol Summary: NCI-60 one-dose screen, 48 h (100 = growth as untreated, 0 = no growth, -100 = all killed)
# Setup Conditions: 10 µM unless noted
This is part of a sample that, as a whole, favours compounds with a hit. Of some 83,000 tested, about 20% had one in any assay.
Strictly below 70% in growth: class 1. Otherwise: class 0.

Compound: CN(Cc1ccccc1)c1nc(Cl)c(C2CC(c3ccc(Cl)cc3)=NN2c2cc(Cl)cc(Cl)c2)s1 (configuration not stated)
Assigned Label: class 0
//
Compound: C=C(C)[C@@H]1CC[C@]2(C#N)CC[C@]3(C)[C@H](CC[C@@H]4[C@@]5(C)CCCNC(C)(C)[C@@H]5CC[C@]43C)[C@@H]12
Assigned Label: class 1
//
Compound: O=c1c(Cc2ccc(F)cc2)cc(-c2ccccc2)nn1C/C(=N/O)c1ccccc1
Assigned Label: class 1
//
Compound: C#CCOc1cccc(Nc2ncnc3c(NC(=O)CCl)cccc23)c1
Assigned Label: class 0
//
Compound: COc1ccccc1NC(=O)n1c(=O)cc(C)c2ccc(O)cc21
Assigned Label: class 0
//
Compound: O=C1C2C(c3cccs3)C=C(c3ccc(Cl)cc3)N2C(=S)N1c1ccccc1 (configuration not stated)
Assigned Label: class 0
//
Compound: CCN=c1sc2c(n1NC(=O)c1cc3ccc1CCc1ccc(cc1)CC3)C(=O)c1ccccc1C2=O
Assigned Label: class 1
//
Compound: C#Cc1cccc(Nc2nc(Cl)nc3cc(NC(=O)CCl)ccc23)c1
Assigned Label: class 1
//
Compound: CCN1CCN(CCOc2ccc(CNc3ccc4nc(CCC5CCCCC5)[nH]c4c3)cc2)CC1
Assigned Label: class 1
//
Compound: CCCc1cc(CCC)n2nc(N)nc2n1
Assigned Label: class 0
//
Compound: COc1cccc2cc(N(C)c3nc(C)nc4c3CCC4)ccc12
Assigned Label: class 1

====

# Test system: K-562 leukemia
# Protocol Summary: NCI-60 one-dose screen, 48 h
# Setup Conditions: 10 µM unless noted
The panel holds about 83,000 compounds, 20% with a hit somewhere; the sample as a whole holds those more often. The source made the active and inactive calls. The calls were made as follows: active = growth percent below 10; inactive = the rest.
Outcomes: class 1 = active, class 0 = inactive

Compound: Cc1ccc(Nc2cc(N)nc(N)n2)cc1
Assigned Label: class 0
--
Compound: CCOC(=O)c1c(C)n2c(=O)cc(C)c3c(OC(C)=O)c(OC(C)=O)cc1c32
Assigned Label: class 0
--
Compound: COC1=C(OC)C(=O)C(CCCCCCCCCCO)=C(C)C1=O
Assigned Label: class 0
--
Compound: O=C1c2c(c3c4cccnc4[nH]c3c3ccc4ccccc4c23)C(=O)N1O
Assigned Label: class 0
--
Compound: C/C=C(/C)C(=O)O[C@@H]1CC(C)(C)CC2C34OC(=O)[C@@]21CC[C@@]3(C)[C@]1(C)CCC2C(C)(C)C(=O)CC[C@]2(C)C1C[C@@H]4O (some centres undefined)
Assigned Label: class 0
--
Compound: CCOc1ccc(-c2cc(C3(S(=O)(=O)c4ccc(C)cc4)CC=CC3)on2)cc1
Assigned Label: class 0
--
Compound: Cc1ccc(C(F)(F)F)cc1N1CCN(C(=O)[C@H]2C[C@H]2c2ccc(C(F)(F)F)nc2)CC1
Assigned Label: class 0
--
Compound: C[C@H]1c2ccccc2CN1CCCOc1cc2c(cc1OCC1CC1)C1(CCCC1)C(N)=N2
Assigned Label: class 1
--
Compound: CC(C)(C)n1cc(-c2ccnc(NCCNS(=O)(=O)c3cccc4ccccc34)c2)c(-c2cccc(O)c2)n1
Assigned Label: class 0
--
Compound: COc1cc(C(=O)/C=C/c2c(-c3cccs3)nc3sc(C)cn23)cc(OC)c1OC
Assigned Label: class 1
--
Compound: CC(=O)CC(=O)c1ccccc1.[Cu+2]
Assigned Label: class 0
--
Compound: COc1ccc(NC(=O)CSc2oc(-c3ccccc3)nc2S(=O)(=O)c2ccc(Cl)cc2)c(OC)c1
Assigned Label: class 0
--
Compound: CN1CCN(Cc2ccc(NC(=O)c3cncc(C#Cc4cnc(N)c5ncccc45)c3)cc2Cl)CC1
Assigned Label: class 1
--
Compound: O=C1/C(=C/c2cccc([N+](=O)[O-])c2)COc2ccc(O)c(O)c21
Assigned Label: class 1
